# Test system: SF-295 CNS
# experiment: NCI tumour cell line growth inhibition, 48 h
Each item that follows carries a reported TGI.
measured quantity: TGI

>>> print(df.to_string())
                                   compound  measured_quantity  test_value
0  [C-]#[O+].[Cl][Sn]([Cl])[Cl].[Cl][Sn]([Cl])[Cl].[Pt].c1ccc([PH+](c2ccccc2)c2ccccc2)cc1.c1ccc([PH+](c2ccccc2)c2ccccc2)cc1                TGI    > 100 µM
1  Cc1cc(N2CCN(C)CC2)nc(NCc2cc(Nc3ccnc4cc(Cl)ccc34)ccc2F)n1                TGI     3.24 µM
2  CCOC(=O)C1=C(C)NC2SC(=O)/C(=C\c3ccccc3Cl)N2C1c1ccccc1 (configuration not stated)                TGI    > 100 µM
3  O=C1c2ccccc2NC(c2cc(Cl)cc(Cl)c2O)N1CCc1ccccn1 (configuration not stated)                TGI    > 100 µM
4  Cc1ccc(NC(=O)CC/C(CC(=O)C(C)(C)C)=N/NC(=O)C(N)=O)cc1C                TGI    > 100 µM
5      Cc1nc2ccccc2c(=O)n1-c1n[nH]c2ccccc12                TGI    > 100 µM
6  CCOc1cc(-c2nc3ccccn3c2/N=C/c2cc([N+](=O)[O-])cc([N+](=O)[O-])c2O)ccc1O                TGI    > 100 µM
